# System: HEK-293T
# method-description: Multiplex assay against HEK293T;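 also: share of the cells with healthy nuclei that show this phenotype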
# Format: toxicity, cell-based
# stated-conditions: human, 12 h, 10 µM, compound concentration 10 uM, replicate 2
measured-parameter: Population Tubulin-Different-Phenotype (%)
Write the answer as a number in %, unit excluded.

Some solved entries appear below for comparison.
Lookup result for "CN(c1cc(C(F)(F)F)nc(OCCC(=O)O)n1)c1cccc2c1CCC2" ; measured Population Tubulin-Different-Phenotype (%): 9

Memo: CC[C@@H]1C(=O)N(C)c2cnc(Nc3ccc(C(=O)NC4CCN(C)CC4)cc3OC)nc2N1C1CCCC1 [BI-2536] , reported Population Tubulin-Different-Phenotype (%): 98

Documented Population Tubulin-Different-Phenotype (%) of CC[C@H](Nc1ncnc2[nH]cnc12)c1nc2cccc(F)c2c(=O)n1-c1ccccc1 [IDELALISIB] : 7

API: the following record is the query input.
The measured Population Tubulin-Different-Phenotype (%) associated with "Cc1ccc(NC(=O)Nc2cc(C(F)(F)F)ccc2F)cc1Nc1ccc2c(c1)NC(=O)/C2=C\c1ccc[nH]1" reads 2
